Recorded kd values for a group of molecules are listed next.
# TESTED_ON: T1, human PD-L2 antigen (Homo sapiens, UniProt Q9BQ51)
# T1 sequence (Q9BQ51 20-273): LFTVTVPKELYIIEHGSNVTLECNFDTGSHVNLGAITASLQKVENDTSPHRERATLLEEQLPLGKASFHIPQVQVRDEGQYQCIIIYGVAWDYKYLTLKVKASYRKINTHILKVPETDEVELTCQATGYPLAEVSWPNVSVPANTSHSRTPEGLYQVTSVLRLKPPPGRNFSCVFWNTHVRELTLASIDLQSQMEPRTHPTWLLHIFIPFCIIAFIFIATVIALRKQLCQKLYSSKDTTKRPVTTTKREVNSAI
# METHOD: Single cycle kinetics on Biacore 8K, binding to human PD-L2 antigen
# SETUP_CONDITIONS: Table 2, cell culture supernatants
Entry rule: numbers only, all in s⁻¹.

MOLECULE	UNITS_SYMBOL	kd
VH1/VK0: anti-PD-L2 variant on hIgG1; SEQ ID NO: 2/SEQ ID NO: 9 (antibody, V domains shown, human IgG1 constant regions) VH: QVQLVQSGAELKKPGSSVKVSCKASGYAFSNYFIEWVKQPPGKGLEWIGLNIPGSGGSNYAEKFKGRATITADKSTSTAYMELSSLTSEDSAVYFCARRRLPPDWYFDVWGQGTTVTVSS VL: DVVMTQTPLSLPVSLGDQASISCRSSQSLVHSDGNTYLHWYLQKPGQSPKLLIYKVSNRFSGVPDRFSGSGSGTDFTLKISRVEAEDLGVYFCSQSTHVPWTFGGGTKLEIK	s⁻¹	0.000109

What the record says about VH4/VK1: humanized anti-PD-L2 variant; SEQ ID NO: 5/SEQ ID NO: 10 (antibody, V domains shown) VH: QVQLVQSGAEVKKPGSSVKVSCKASGYAFSNYFIEWVKQPPGKGLEWIGLNIPGSGGSNYAEKFKGRVTITADKSTSTAYMELSSLRSEDTAVYYCARRRLPPDWYFDVWGQGTTVTVSS VL: DVVMTQSPLSLPVTLGQPASISCRSSQSLVHSDGNTYLHWYQQKPGQPPKLLIYKVSNRFSGVPDRFSGSGSGTDFTLKISRVEAEDVGVYFCSQSTHVPWTFGGGTKVEIK : kd is 0.000125

What the record says about VH2/VK3: humanized anti-PD-L2 variant; SEQ ID NO: 3/SEQ ID NO: 12 (antibody, V domains shown) VH: QVQLVQSGAEVKKPGSSVKVSCKASGYAFSNYFIEWVKQPPGKGLEWIGLNIPGSGGSNYAEKFKGRATITADKSTSTAYMELSSLRSEDSAVYFCARRRLPPDWYFDVWGQGTTVTVSS VL: DVVMTQSPLSLPVTLGQPASISCRSSQSLVHSGGNTYLHWYQQKPGQPPKLLIYKVSNRFSGVPDRFSGSGSGTDFTLKISRVEAEDVGVYFCSQSTHVPWTFGGGTKVEIK : kd is 0.000414

What the record says about VH6/VK2: humanized anti-PD-L2 variant; SEQ ID NO: 6/SEQ ID NO: 11 (antibody, V domains shown) VH: QVQLVQSGAEVKKPGSSVKVSCKASGYSFSNYFIEWVKQPPGKGLEWIGLNIPGSGGSNYAEKFKGRVTITADKSTSTAYMELSSLRSEDTAVYYCARRRLPPDWYFDVWGQGTTVTVSS VL: DVVMTQSPLSLPVTLGQPASISCRSSQSLVHSDGNTYLHWYQQKPGQPPKLLIYKVSNRFSGVPDRFSGSGSGTDFTLKISRVEAEDVGVYYCSQSTHVPWTFGGGTKVEIK : kd is 0.000128
